target-system: Isocitrate dehydrogenase [NADP], mitochondrial (Homo sapiens, UniProt P48735, R140Q)
experiment-notes: Inhibition of IDH2 R140Q mutant (unknown origin) transfected using lentiviral expression system in human U87MG cells assessed as reduction in 2-HG content using alpha-ketoglutarate as substrate after 48 hrs by LC-MS analysis
Format: cell-based
pIC50: −log10 of the molar value.
measured-quantity: pIC50

[[record]]
compound = "FC1(F)CCC(Nc2nc(NC3CCC(F)(F)C3)nc(-c3cccc(C(F)(F)F)n3)n2)C1 (stereo not given)"
measured_quantity = "pIC50"
readout_number = 8.05

[[record]]
compound = "FC1(F)CCC(Nc2nc(NC3CCC(F)(F)C3)nc(-c3cccc(Cl)n3)n2)C1 (stereo not given)"
measured_quantity = "pIC50"
readout_number = 8.22

[[record]]
compound = "C[C@@H](Nc1nc(N[C@H](C)C2CC2)nc(-c2cccc(C(F)(F)F)n2)n1)C1CC1"
measured_quantity = "pIC50"
readout_number = 7.85

[[record]]
compound = "CCC(Nc1nc(NC(CC)C2CC2)nc(-c2cccc(Cl)n2)n1)C1CC1 (stereo not given)"
measured_quantity = "pIC50"
readout_number = 7.85

[[record]]
compound = "FC1(F)CCC(Nc2nc(NC3CCC(F)(F)CC3)nc(-c3cccc(C(F)(F)F)n3)n2)CC1"
measured_quantity = "pIC50"
readout_number = 8.05

